# target.of.assay: human M2 receptor (Homo sapiens)
# experimental.context: Receptor activity EC50, M2-GIRK1/4 activation test, acetylcholine at EC20; allosteric potency; in some cases mean values from two or more determinations
pEC50: −log10 of the molar value.

compound: CC(C)(NC(=O)c1cn(-c2ccc(F)cc2F)c2nc(N3CCCS3(=O)=O)ccc2c1=O)c1c(F)cccc1F [compound 185]
pEC50: 6.81
//
compound: CC[C@@H](NC(=O)c1cn(-c2ccc(F)cc2F)c2nc(N3CCC(C)(OC)C3=O)ccc2c1=O)C(F)(F)F (mixture of isomers) [Example 197]
pEC50: 6.92
//
compound: CN(C)c1ccc2c(=O)c(C(=O)NC(C)(C)C)cn(-c3ccc(F)cc3F)c2n1 [Example 43]
pEC50: 6.85

---

The entries below are paired with their reported pEC50.
# target.of.assay: human M2 receptor (Homo sapiens)
# experimental.context: Receptor activity EC50, allosteric potency at EC20 acetylcholine; M2-GIRK1/4 reporter cells; in some cases mean of two or more determinations
pEC50: −log10 of the molar value.

molecule: CC1CN(c2ccc3c(=O)c(C(=O)N[C@@H](C4CC4)C(F)(F)F)cn(-c4c(F)cc(F)cc4F)c3n2)C(=O)O1 (mixture of isomers) [Example 436]
pEC50: 7.09
--
molecule: CC[C@H](NC(=O)c1cn(-c2c(F)cc(F)cc2Cl)c2nc(N3C[C@@H](O)CC3=O)ccc2c1=O)C(F)(F)F (single isomer, unassigned) [Example 399]
pEC50: 7.40
--
molecule: CC[C@H](NC(=O)c1cn(-c2c(F)cc(F)cc2F)c2nc(N3CC(O)C4(CC4)C3)ccc2c1=O)C(F)(F)F (single isomer, unassigned) [Example 621]
pEC50: 8.00
--
molecule: O=C(N[C@@H](C1CC1)C(F)(F)F)c1cn(-c2c(F)cc(F)cc2F)c2nc(N3CC(O)C4(CC4)C3)ccc2c1=O (single isomer, unassigned) [Example 601]
pEC50: 7.14
--
molecule: CCC(NC(=O)c1cn(-c2ccc(F)cc2F)c2nc(N3C[C@@H](O)CC3=O)ccc2c1=O)C(F)(F)C(F)(F)F (single isomer, unassigned) [Example 558]
pEC50: 7.66
--
molecule: CC1CC(=O)N(c2ccc3c(=O)c(C(=O)N[C@@H](C4CC4)C(F)(F)F)cn(-c4c(F)cc(F)cc4Cl)c3n2)C1 (mixture of isomers)
pEC50: 7.80
--
molecule: CC[C@@H](NC(=O)c1cn(-c2c(Cl)cc(F)cc2Cl)c2nc(N3CCNC3=O)ccc2c1=O)C(F)(F)F
pEC50: 7.08
--
molecule: O=C(N[C@@H](C1CC1)C(F)(F)F)c1cn(-c2c(F)cc(F)cc2F)c2nc(N3CCOC(CO)C3)ccc2c1=O (mixture of isomers) [Example 463]
pEC50: 7.27
--
molecule: CC(NC(=O)c1cn(-c2c(F)cc(F)cc2F)c2nc(N3CCNC3=O)ccc2c1=O)C(F)(F)C(F)(F)F (racemic) [Example 542]
pEC50: 7.72
--
molecule: CCC(COC(F)(F)F)NC(=O)c1cn(-c2c(F)cc(F)cc2F)c2nc(N3C[C@@H](O)CC3=O)ccc2c1=O (single isomer, unassigned) [Example 412]
pEC50: 7.80
--
molecule: O=C(N[C@@H](C1CC1)C(F)(F)F)c1cn(-c2c(F)cc(F)cc2F)c2nc(N3CCCNC3=O)ccc2c1=O
pEC50: 7.60
--
molecule: O=C(N[C@@H](C1CC1)C(F)(F)F)c1cn(-c2c(F)cc(F)cc2Cl)c2nc(N3C[C@@H](O)[C@H](O)C3)ccc2c1=O [Example 546]
pEC50: 8.00
--
molecule: CC[C@@H](COC(F)(F)F)NC(=O)c1cn(-c2c(F)cc(F)cc2F)c2nc(N3C[C@@H](C)NC3=O)ccc2c1=O (single isomer, unassigned) [Example 454]
pEC50: 8.15
--
molecule: CC(C)[C@H](C)NC(=O)c1cn(-c2c(F)cc(F)cc2F)c2nc(N3C[C@@H](O)[C@H](O)C3)ccc2c1=O
pEC50: 7.54

---

# target.of.assay: human M2 receptor (Homo sapiens, UniProt P08172)
# Sequence (P08172 1-466): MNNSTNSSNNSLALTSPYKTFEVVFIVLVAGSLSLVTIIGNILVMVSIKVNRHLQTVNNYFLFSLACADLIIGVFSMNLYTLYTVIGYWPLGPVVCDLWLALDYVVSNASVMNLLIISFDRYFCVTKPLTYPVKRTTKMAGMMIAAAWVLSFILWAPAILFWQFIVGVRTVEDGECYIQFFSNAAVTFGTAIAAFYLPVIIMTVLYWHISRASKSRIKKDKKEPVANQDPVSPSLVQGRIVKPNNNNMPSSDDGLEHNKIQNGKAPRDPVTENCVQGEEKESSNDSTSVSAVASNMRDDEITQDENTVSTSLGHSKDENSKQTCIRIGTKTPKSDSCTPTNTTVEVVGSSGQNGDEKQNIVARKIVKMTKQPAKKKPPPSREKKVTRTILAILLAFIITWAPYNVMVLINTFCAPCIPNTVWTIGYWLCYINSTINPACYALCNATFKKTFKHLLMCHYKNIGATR
# experimental.context: read-out: Efficiency
The entries below are paired with their reported Emax.

compound: CC[C@H](NC(=O)c1cn(-c2ccc(F)cc2F)c2nc(N3C[C@H](O)CC3=O)ccc2c1=O)C(F)(F)F
Emax: 79.9%
//
compound: CC[C@H](NC(=O)c1cn(-c2c(F)cc(F)cc2F)c2nc(N3C[C@@H](O)CC3=O)ccc2c1=O)C(F)(F)F
Emax: 99.2%
//
compound: CC(C)(C)[C@@H](NC(=O)c1cn(-c2c(F)cc(F)cc2F)c2nc(N3C[C@@H](O)[C@H](O)C3)ccc2c1=O)C(F)(F)F
Emax: 100%
//
compound: CC[C@@H](NC(=O)c1cn(-c2c(F)cccc2F)c2nc(N3C[C@@H](O)CC3=O)ccc2c1=O)C(F)(F)F
Emax: 92.8%
//
compound: CC[C@H](NC(=O)c1cn(-c2c(Cl)cc(F)cc2Cl)c2nc(N3C[C@@H](O)CC3=O)ccc2c1=O)C(F)(F)F
Emax: 85.5%
//
compound: CC(NC(=O)c1cn(-c2c(F)cc(F)cc2F)c2nc(N3C[C@@H](O)[C@H](O)C3)ccc2c1=O)C(F)(F)C(F)(F)F (mixture of isomers) [Example 549]
Emax: 100%
//
compound: CC[C@H](NC(=O)c1cn(-c2c(F)cccc2F)c2nc(N3C[C@@H](O)CC3=O)ccc2c1=O)C(F)(F)F
Emax: 94.5%
//
compound: CC[C@@H](NC(=O)c1cn(-c2c(Cl)cc(F)cc2Cl)c2nc(N3C[C@@H](O)CC3=O)ccc2c1=O)C(F)(F)F
Emax: 89%
//
compound: O=C(N[C@@H](C1CC1)C(F)(F)F)c1cn(-c2c(F)cc(F)cc2F)c2nc(N3C[C@@H](O)[C@@H](O)C3)ccc2c1=O
Emax: 100%
//
compound: O=C(N[C@@H](C1CC1)C(F)(F)F)c1cn(-c2c(F)cc(F)cc2F)c2nc(N3C[C@H](O)[C@@H](O)C3)ccc2c1=O
Emax: 100%
//
compound: CC[C@@H](NC(=O)c1cn(-c2c(F)cc(F)cc2F)c2nc(N3C[C@@H](O)CC3=O)ccc2c1=O)C(F)(F)F
Emax: 93%

---

The entries below are paired with their reported Cooperativity (alpha factor).
# target.of.assay: human M2 receptor (Homo sapiens, UniProt P08172)
# Format: cell-based
# experimental.context: shift in the acetylcholine dose-response curve (Allosteric EC50 shift, GraphPad PRISM); α >1 = positive cooperativity

compound: O=C(NC(c1ccccc1Cl)C(F)(F)F)c1cn(-c2ccc(F)cc2F)c2nc(N3C[C@@H](O)CC3=O)ccc2c1=O (single isomer, unassigned) [Example 212]
Cooperativity (alpha factor): 54
--
compound: CC[C@@H](NC(=O)c1cn(-c2ccc(F)cc2F)c2nc(N3C[C@@H](OC)CC3=O)ccc2c1=O)C(F)(F)F
Cooperativity (alpha factor): 50
--
compound: O=C(N[C@@H](C1CC1)C(F)(F)F)c1cn(-c2c(F)cc(F)cc2F)c2nc(N3CCN(CCO)C3=O)ccc2c1=O
Cooperativity (alpha factor): 28
--
compound: O=C(NC(C(F)(F)F)C(F)(F)F)c1cn(-c2ccc(F)cc2F)c2nc(NCCF)ccc2c1=O
Cooperativity (alpha factor): 20
--
compound: CC[C@@H](NC(=O)c1cn(-c2ccc(F)cc2F)c2nc(NCC(F)F)ccc2c1=O)C(F)(F)F
Cooperativity (alpha factor): 14
--
compound: O=C(N[C@H](C1CC1)C(F)(F)F)c1cn(-c2c(F)cc(F)cc2F)c2nc(N3C[C@@H](O)CC3=O)ccc2c1=O
Cooperativity (alpha factor): 39
--
compound: CC(NC(=O)c1cn(-c2ccc(F)cc2F)c2nc(NCC(F)(F)F)ccc2c1=O)C(F)(F)F (centres unmarked)
Cooperativity (alpha factor): 8
--
compound: O=C(Nc1c(Cl)cccc1Cl)c1cn(-c2ccc(F)cc2F)c2nc(N3C[C@@H](O)CC3=O)ccc2c1=O
Cooperativity (alpha factor): 39

The reported numbers originate from patent US20190367516A1.
